biological target: UniProt P34998; assay: Homogeneous Time-Resolved Fluorescence Assay: Chinese hamster ovary (CHO) cells expressing either the human or rat recombinant CRF-1 or human CRF-2alpha (Chen et al, Proc Natl Acad Sci USA 90, 8967-8971, 1993; Liaw et al, Endocrinology 137, 72-77, 1996) are propagated in Dulbecco's modified Eagle medium supplemented with 10% foetal calf serum, non-essential amino acids, 100 U/ml penicillin, 100 mg/l streptomycin and 1 g/l geneticin. CHO cells expressing the rat CRF-2beta receptor (Wu et al, Endocrinology 148, 1675-1687, 2007) are propagated in HAM's-F12 Glutamax supplemented with 10% foetal calf serum, 100 IU/ml penicillin, 100 mg/l streptomycin, 600 ug/ml hygromycin, 10 ug/ml blasticidin and induced with 1 ug/ml of tetracyclin for 24 hours prior to experimentation. For cyclic AMP determinations the Homogeneous Time-Resolved Fluoresce (HTRF) CAMP dynamic 2 kit (Cisbio International, France) was used as per manufacturers' instructions.
Sequence (P34998 whole entry): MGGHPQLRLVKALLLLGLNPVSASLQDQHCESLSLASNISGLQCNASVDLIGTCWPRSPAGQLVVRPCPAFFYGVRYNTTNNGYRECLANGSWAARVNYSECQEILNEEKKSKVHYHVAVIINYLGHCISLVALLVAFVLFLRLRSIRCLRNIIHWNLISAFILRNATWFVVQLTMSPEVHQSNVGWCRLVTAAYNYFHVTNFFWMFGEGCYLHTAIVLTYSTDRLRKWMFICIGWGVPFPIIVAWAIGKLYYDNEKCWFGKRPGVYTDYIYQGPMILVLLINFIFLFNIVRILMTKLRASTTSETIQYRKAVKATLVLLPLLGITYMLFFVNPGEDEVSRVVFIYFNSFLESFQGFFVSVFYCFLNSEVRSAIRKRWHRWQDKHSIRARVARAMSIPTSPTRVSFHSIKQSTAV
Classification scheme (IC50): lo (below 100 nM), med (100 nM to below 600 nM), hi (600 nM or more)

Asked: Dear colleague, I would appreciate it if you could identify the bin for COc1cc(C)nn1C[C@H]1CC[C@H](NC(=O)c2cc(C(F)(F)F)ccc2Cl)CC1 and reply at your convenience.
Given back: lo

Asked: Same for Cc1ncc(Cl)cc1C(=O)N[C@H]1CC[C@H](Cn2nc(CO)cc2C)CC1
Given back: hi

Asked: Same for Cc1cn(C[C@H]2CC[C@H](NC(=O)c3cc(C(F)(F)F)ccc3Cl)CC2)nc1C
Given back: med

Asked: Same for O=C(N[C@H]1CC[C@H](Cn2cc(Cl)c(CO)n2)CC1)c1cc(C(F)(F)F)ccc1Cl
Given back: lo

Asked: Same for CCc1cc(CC)n(C[C@H]2CC[C@H](NC(=O)c3cc(Cl)cnc3C)CC2)n1
Given back: med

Asked: Same for Cc1cc(CO)n(C[C@H]2CC[C@H](NC(=O)c3cc(Cl)cnc3C)CC2)n1
Given back: hi

Asked: Same for CCc1[nH]nc(NC[C@H]2CC[C@H](NC(=O)c3cc(Cl)cnc3C)CC2)c1C
Given back: med

Asked: Same for CCc1cc(CC)n(C[C@H]2CC[C@H](NC(=O)c3cc(C(F)(F)F)ccc3Cl)CC2)n1
Given back: lo

Asked: Same for Cc1cc(C)n(C[C@H]2CC[C@H](NC(=O)c3cc(C(F)(F)F)cnc3C)CC2)n1
Given back: hi
